B1: CPEB3 Ribozyme (parent)
chain: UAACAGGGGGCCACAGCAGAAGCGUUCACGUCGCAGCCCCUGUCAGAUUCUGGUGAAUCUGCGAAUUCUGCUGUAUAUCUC

Variants of: B1
Test: self-cleavage, relative activity (ratio to wild type); higher = more cleavage; in vitro, sequencing
Kindly return Criterion met if reported self-cleavage is no lower than 0.4; return Criterion not met if it is lower.

Example results:
1. U66A: Criterion met
2. G36C C38U: Criterion not met
3. U41G U49C: Criterion not met
4. A5U C14A: Criterion met
5. A3U C44U: Criterion met

Given the entry C37U A65U , answer whether its self-cleavage meets or surpasses 0.4. Criterion not met

Given the entry C23A U78G , answer whether its self-cleavage meets or surpasses 0.4. Criterion not met

Given the entry G7A U26A , answer whether its self-cleavage meets or surpasses 0.4. Criterion not met

Given the entry U48A U69C , answer whether its self-cleavage meets or surpasses 0.4. Criterion met

Given the entry G55U C81U , answer whether its self-cleavage meets or surpasses 0.4. Criterion met

Given the entry U58G A64U , answer whether its self-cleavage meets or surpasses 0.4. Criterion not met
